Each recorded value in this set is attributed to ChEMBL document CHEMBL4422636.

Quick list: Activity per entry.
experimental_target: Glutamate receptor ionotropic, NMDA 2B (Rattus norvegicus)
experiment_notes: Allosteric modulation of rat GluN2B expressed in Xenopus laevis oocytes assessed as L-glutamate/glycine-induced current response at 100 uM at holding potential -60 mV by two-electrode voltage clamp method relative to L-glutamate/glycine
Type: cell-based
Numbers only; they are read as %.

Solved entries (count: 9):
>  <molecule>
CC(CCCc1ccc2cc(C(=O)O)ccc2c1)CC(=O)O (racemic)

>  <recorded_result>
64

$$$$
>  <molecule>
O=C(O)c1cc2ccc(/C=C/c3ccccc3)cc2cc1C(=O)O

>  <recorded_result>
66.7

$$$$
>  <molecule>
CC(C)CNC(=O)c1ccc2cc(C(=O)O)ccc2c1

>  <recorded_result>
65

$$$$
>  <molecule>
CC(C/C=C/c1ccc2cc(C(=O)O)ccc2c1)C(=O)O (racemic)

>  <recorded_result>
97

$$$$
>  <molecule>
CC(C)CCCc1ccc2cc(C(=O)O)c(O)cc2c1

>  <recorded_result>
309

$$$$
>  <molecule>
C=C(CCC(C)C)c1ccc2cc(C(=O)O)ccc2c1

>  <recorded_result>
265

$$$$
>  <molecule>
CCCCCc1ccc2cc(CC(=O)O)ccc2c1

>  <recorded_result>
67

$$$$
>  <molecule>
CCCCOc1ccc2cc(C(=O)O)ccc2c1

>  <recorded_result>
46

$$$$
>  <molecule>
CCCCCc1ccc2cc(C(=O)O)ccc2c1

>  <recorded_result>
102

$$$$

// moving on: another record for Activity
Request: Suppose we examine the molecule `CC(C)CC#Cc1ccc2cc(C(=O)O)ccc2c1` ; what Activity value has been reported?
Response: 99

====

experimental_target: Glutamate receptor ionotropic, NMDA 2D (Rattus norvegicus)
experiment_notes: Allosteric modulation of rat GluN2D expressed in Xenopus laevis oocytes assessed as L-glutamate/glycine-induced current response at 100 uM at holding potential -60 mV by two-electrode voltage clamp method relative to L-glutamate/glycine
Assay type: cell-based
Kindly return TRUE if reported Activity is no lower than 70%; return FALSE if it is lower.

>  <compound>
CCCCCc1ccc2cc(C(=O)O)ccc2c1

>  <assigned_category>
TRUE

$$$$
>  <compound>
O=C(O)c1cc2cc(/C=C/c3ccccc3[N+](=O)[O-])ccc2cc1O

>  <assigned_category>
FALSE

$$$$
>  <compound>
O=C(O)c1ccc2cc(CCCCc3ccccc3)ccc2c1

>  <assigned_category>
TRUE

$$$$
>  <compound>
CC(C)CCCc1ccc2cc(C(=O)O)c(O)cc2c1

>  <assigned_category>
TRUE

$$$$
>  <compound>
O=C(O)c1ccc2cc(I)c3ccccc3c2c1

>  <assigned_category>
FALSE

$$$$

Request: # check: Activity of `COc1cccc(/C=C/c2ccc3cc(O)c(C(=O)O)cc3c2)c1` is greater than or equal to 70%
Response: FALSE

Request: And then CC(C/C=C/c1ccc2cc(C(=O)O)ccc2c1)C(=O)O (racemic) , what is it?
Response: TRUE

Request: Also need `CC(C)CCC(=O)c1ccc2cc(C(=O)O)ccc2c1` , thanks.
Response: TRUE

Request: # repeat for `O=C(O)c1ccc(/C=C/c2ccc3cc(O)c(C(=O)O)cc3c2)cc1`
Response: FALSE

Request: How about `O=C(O)c1cc2cc(/C=C/c3cccc([N+](=O)[O-])c3)ccc2cc1O` ?
Response: FALSE

Request: Another compound to look at: `CC(C)CC#Cc1ccc2cc(C(=O)O)ccc2c1`
Response: TRUE

Request: Moving on to `O=C(O)c1cc2cc(-c3ccccc3)ccc2cc1O`
Response: FALSE

Request: // repeat for `O=C(O)c1ccc2cc(CCCC3CCCC3)ccc2c1` and report
Response: TRUE

====

Catalogue of Activity values
experimental_target: Glutamate receptor ionotropic, NMDA 2C (Rattus norvegicus) (UniProt Q00961)
Sequence (Q00961 20-1237 limits assumed): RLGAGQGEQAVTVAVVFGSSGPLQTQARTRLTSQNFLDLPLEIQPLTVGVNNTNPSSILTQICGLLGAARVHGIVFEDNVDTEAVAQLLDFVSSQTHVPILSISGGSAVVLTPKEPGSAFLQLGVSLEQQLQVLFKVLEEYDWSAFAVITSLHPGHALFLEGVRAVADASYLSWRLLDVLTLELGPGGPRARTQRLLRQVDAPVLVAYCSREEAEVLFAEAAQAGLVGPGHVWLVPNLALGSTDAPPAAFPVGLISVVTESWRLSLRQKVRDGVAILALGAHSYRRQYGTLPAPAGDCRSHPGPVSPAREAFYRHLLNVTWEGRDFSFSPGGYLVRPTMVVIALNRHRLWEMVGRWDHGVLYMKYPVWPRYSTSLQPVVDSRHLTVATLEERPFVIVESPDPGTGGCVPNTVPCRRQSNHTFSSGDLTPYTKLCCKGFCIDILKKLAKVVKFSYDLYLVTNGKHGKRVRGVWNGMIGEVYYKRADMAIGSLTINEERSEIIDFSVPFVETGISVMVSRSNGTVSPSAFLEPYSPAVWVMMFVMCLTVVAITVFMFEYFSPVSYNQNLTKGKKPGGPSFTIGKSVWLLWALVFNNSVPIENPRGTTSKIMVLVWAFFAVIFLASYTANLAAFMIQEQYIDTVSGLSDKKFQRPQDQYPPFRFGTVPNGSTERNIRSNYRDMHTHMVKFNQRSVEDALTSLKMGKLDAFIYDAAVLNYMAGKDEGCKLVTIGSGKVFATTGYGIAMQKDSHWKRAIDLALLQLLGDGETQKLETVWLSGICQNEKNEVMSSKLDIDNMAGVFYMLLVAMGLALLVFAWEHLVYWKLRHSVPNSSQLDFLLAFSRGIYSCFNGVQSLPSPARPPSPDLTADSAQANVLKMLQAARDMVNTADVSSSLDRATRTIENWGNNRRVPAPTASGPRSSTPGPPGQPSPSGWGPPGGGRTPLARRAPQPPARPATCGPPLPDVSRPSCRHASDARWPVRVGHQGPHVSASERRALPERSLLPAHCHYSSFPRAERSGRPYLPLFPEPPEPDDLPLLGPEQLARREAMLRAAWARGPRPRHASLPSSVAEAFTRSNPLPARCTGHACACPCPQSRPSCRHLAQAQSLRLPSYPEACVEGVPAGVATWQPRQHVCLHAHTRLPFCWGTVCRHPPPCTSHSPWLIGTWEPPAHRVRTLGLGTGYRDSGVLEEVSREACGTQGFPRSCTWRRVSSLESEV
experiment_notes: Allosteric modulation of rat GluN2C expressed in Xenopus laevis oocytes assessed as L-glutamate/glycine-induced current response at 100 uM at holding potential -60 mV by two-electrode voltage clamp method relative to L-glutamate/glycine
Assay type: cell-based
Note: unit % is implicit; provide only the numeric part.

>  <compound>
O=C(O)c1cc2cc(/C=C/c3cccc([N+](=O)[O-])c3)ccc2cc1O

>  <reported_endpoint>
Activity

>  <recorded_result>
24.4

$$$$
>  <compound>
O=C(O)c1cc2cc(CCc3ccccc3C(=O)O)ccc2cc1O

>  <reported_endpoint>
Activity

>  <recorded_result>
94.1

$$$$
>  <compound>
CC(C)CC#Cc1ccc2cc(C(=O)O)ccc2c1

>  <reported_endpoint>
Activity

>  <recorded_result>
125

$$$$
>  <compound>
CC(CCCc1ccc2cc(C(=O)O)ccc2c1)C(=O)O (racemic)

>  <reported_endpoint>
Activity

>  <recorded_result>
98

$$$$
>  <compound>
CC(C)CCCc1ccc2cc(C(=O)O)c(O)cc2c1

>  <reported_endpoint>
Activity

>  <recorded_result>
357

$$$$
>  <compound>
O=C(O)c1cc2cc(/C=C/c3ccc([N+](=O)[O-])cc3)ccc2cc1O

>  <reported_endpoint>
Activity

>  <recorded_result>
43.3

$$$$

Request: For `COc1ccc(/C=C/c2ccc3cc(O)c(C(=O)O)cc3c2)cc1` , what is its reported Activity?
Response: 39.6

Request: Repeat with `CC(C)C(=O)OCc1ccc2cc(C(=O)O)ccc2c1`
Response: 56

Request: Also `CC(C)CCC(=O)c1ccc2cc(C(=O)O)ccc2c1` , if possible.
Response: 99

Request: Also check `O=C(O)c1ccc2cc(I)c3ccccc3c2c1`
Response: 65.9

Request: Repeat for the following compound: CC(CCCc1ccc2cc(C(=O)O)ccc2c1)CC(=O)O (racemic)
Response: 96

====

Parameter Activity: see the listing below.
experimental_target: Glutamate receptor ionotropic, NMDA 2B (Rattus norvegicus) (UniProt Q00960)
Sequence (Q00960 27-1482 limits assumed): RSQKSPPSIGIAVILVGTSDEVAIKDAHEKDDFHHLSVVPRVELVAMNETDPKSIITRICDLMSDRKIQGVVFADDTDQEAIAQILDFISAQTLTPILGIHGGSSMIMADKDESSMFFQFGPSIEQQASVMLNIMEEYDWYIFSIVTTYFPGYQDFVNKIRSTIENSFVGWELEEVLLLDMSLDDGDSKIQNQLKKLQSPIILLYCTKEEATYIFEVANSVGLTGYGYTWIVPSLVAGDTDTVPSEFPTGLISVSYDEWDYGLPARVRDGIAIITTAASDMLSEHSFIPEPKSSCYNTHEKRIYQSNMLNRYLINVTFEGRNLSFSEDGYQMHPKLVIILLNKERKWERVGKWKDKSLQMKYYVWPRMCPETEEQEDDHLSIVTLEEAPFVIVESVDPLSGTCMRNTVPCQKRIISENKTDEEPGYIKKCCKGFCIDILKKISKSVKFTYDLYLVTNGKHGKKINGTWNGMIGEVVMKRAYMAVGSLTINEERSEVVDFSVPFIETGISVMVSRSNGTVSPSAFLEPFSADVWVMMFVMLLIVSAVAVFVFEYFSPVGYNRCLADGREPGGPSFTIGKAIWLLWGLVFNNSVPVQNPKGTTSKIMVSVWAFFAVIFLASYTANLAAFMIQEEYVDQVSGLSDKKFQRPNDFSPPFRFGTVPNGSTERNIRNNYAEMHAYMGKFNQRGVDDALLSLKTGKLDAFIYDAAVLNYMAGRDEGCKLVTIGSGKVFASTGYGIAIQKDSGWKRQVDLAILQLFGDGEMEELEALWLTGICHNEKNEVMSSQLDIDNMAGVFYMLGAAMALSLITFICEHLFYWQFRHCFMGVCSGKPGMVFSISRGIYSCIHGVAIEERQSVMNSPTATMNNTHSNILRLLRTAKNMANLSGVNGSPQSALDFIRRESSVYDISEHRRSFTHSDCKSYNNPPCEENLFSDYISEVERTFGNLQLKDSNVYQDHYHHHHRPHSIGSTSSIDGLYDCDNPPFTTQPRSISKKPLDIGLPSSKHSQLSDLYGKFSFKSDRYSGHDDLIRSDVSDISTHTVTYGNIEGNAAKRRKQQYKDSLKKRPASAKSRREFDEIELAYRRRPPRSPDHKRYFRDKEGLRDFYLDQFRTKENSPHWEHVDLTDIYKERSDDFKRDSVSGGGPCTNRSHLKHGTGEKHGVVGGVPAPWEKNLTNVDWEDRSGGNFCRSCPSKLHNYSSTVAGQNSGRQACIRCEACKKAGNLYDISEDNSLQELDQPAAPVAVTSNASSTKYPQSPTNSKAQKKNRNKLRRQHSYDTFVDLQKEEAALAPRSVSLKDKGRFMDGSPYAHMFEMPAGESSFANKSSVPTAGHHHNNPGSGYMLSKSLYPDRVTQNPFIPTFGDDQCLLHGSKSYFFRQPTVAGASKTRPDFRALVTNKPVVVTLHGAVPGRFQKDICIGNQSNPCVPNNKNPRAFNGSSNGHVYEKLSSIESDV
experiment_notes: Allosteric modulation of rat GluN2B expressed in Xenopus laevis oocytes assessed as L-glutamate/glycine-induced current response at 100 uM at holding potential -60 mV by two-electrode voltage clamp method relative to L-glutamate/glycine
Type: cell-based
Please reply with the bare figure in % and do not write the unit itself.

>  <compound_structure>
CC(C)COC(=O)c1ccc2cc(C(=O)O)ccc2c1

>  <Activity (%)>
179

$$$$
>  <compound_structure>
CC(C)CCCc1ccc2cc(C(=O)O)ccc2c1

>  <Activity (%)>
171

$$$$
>  <compound_structure>
CC(C)CCC(=O)c1ccc2cc(C(=O)O)ccc2c1

>  <Activity (%)>
82

$$$$

Please find the next compound below.
Request: # query: Activity of entry `O=C(O)c1cc2cc(CCc3ccccc3C(=O)O)ccc2cc1O`
Response: 85.2

====

experimental_target: Glutamate receptor ionotropic, NMDA 2D (Rattus norvegicus)
experiment_notes: Allosteric modulation of rat GluN2D expressed in Xenopus laevis oocytes assessed as L-glutamate/glycine-induced current response at 100 uM at holding potential -60 mV by two-electrode voltage clamp method relative to L-glutamate/glycine
Type: cell-based
Label met when Activity is strictly below 60%; otherwise label not met.

>  <molecule>
COc1ccc(/C=C/c2ccc3cc(O)c(C(=O)O)cc3c2)cc1

>  <experimental_target>
Glutamate receptor ionotropic, NMDA 2D (Rattus norvegicus)

>  <assigned_category>
met

$$$$

Field: next molecule
Request: Lab note: Activity threshold 60%. Does this molecule come in strictly under it? `O=C(O)c1cc2cc(/C=C/c3ccccc3C(=O)O)ccc2cc1O`
Response: not met

====

experimental_target: Glutamate receptor ionotropic, NMDA 2C (Rattus norvegicus) (UniProt Q00961)
experiment_notes: Allosteric modulation of rat GluN2C expressed in Xenopus laevis oocytes assessed as L-glutamate/glycine-induced current response at 100 uM at holding potential -60 mV by two-electrode voltage clamp method relative to L-glutamate/glycine
Type: cell-based
reported_endpoint: Activity (%)
Express the result in % but write the number alone.

Use the examples below as a reference point.
>  <molecule>
CCCCCc1ccc2cc(C(=O)O)ccc2c1

>  <unit_tag>
%

>  <Activity>
126

$$$$
>  <molecule>
O=C(O)c1ccc2cc(CCCCc3ccccc3)ccc2c1

>  <unit_tag>
%

>  <Activity>
123

$$$$
>  <molecule>
CCCCCc1ccc2cc(C(=O)O)ccc2c1Br

>  <unit_tag>
%

>  <Activity>
97

$$$$
>  <molecule>
COc1cccc(/C=C/c2ccc3cc(O)c(C(=O)O)cc3c2)c1

>  <unit_tag>
%

>  <Activity>
30.8

$$$$
>  <molecule>
CC(C)CCCc1ccc2ccc(C(=O)O)cc2c1

>  <unit_tag>
%

>  <Activity>
115

$$$$

Request: Find the recorded Activity belonging to `COc1ccccc1/C=C/c1ccc2cc(O)c(C(=O)O)cc2c1` and report it.
Response: 61.7

Request: Now this one: `CC(C)CNC(=O)c1ccc2cc(C(=O)O)ccc2c1`
Response: 46

Request: # iterate: CC(C/C=C/c1ccc2cc(C(=O)O)ccc2c1)C(=O)O (racemic)
Response: 105

Request: Another: `O=C(O)c1ccc2cc(C3CC3)ccc2c1`
Response: 97

Request: Next molecule: `O=C(O)c1ccc2cc(CCCC3CCCC3)ccc2c1`
Response: 171
